TEST TARGET: TxA2 Synthase (Rattus norvegicus)
Construct: TxB2 generated in whole blood during clotting; endogenous in cells
Sequence (P49430 whole entry): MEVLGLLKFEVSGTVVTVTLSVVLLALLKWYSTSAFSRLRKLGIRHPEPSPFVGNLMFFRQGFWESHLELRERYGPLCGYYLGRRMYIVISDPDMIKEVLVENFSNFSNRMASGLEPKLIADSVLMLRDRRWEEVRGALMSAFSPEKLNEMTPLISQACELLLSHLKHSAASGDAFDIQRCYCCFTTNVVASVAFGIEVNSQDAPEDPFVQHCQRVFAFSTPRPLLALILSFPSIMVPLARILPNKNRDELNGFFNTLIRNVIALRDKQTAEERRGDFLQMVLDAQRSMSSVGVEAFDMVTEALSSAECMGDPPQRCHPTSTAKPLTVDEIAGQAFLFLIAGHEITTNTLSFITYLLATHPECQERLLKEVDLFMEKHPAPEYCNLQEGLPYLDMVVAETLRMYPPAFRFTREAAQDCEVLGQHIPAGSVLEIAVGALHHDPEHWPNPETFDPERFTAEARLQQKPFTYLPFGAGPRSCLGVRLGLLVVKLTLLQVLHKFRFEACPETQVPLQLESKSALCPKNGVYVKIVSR
TEST SUMMARY: Inhibition of TxA2 synthase activity: TxB2 production in rat whole blood during clotting (serum, RIA), in vitro
CONDITION INFO: rat whole blood, n = 8 replicates, limits for p = 0.95 printed on following line, clotting 1 h at 37° C.
PARAMETER MEASURED: IC50 (nM)
Numbers only, in nM.

Quick note, IC50 for O=C(O)CCCCO/N=C(\c1ccccc1)C(Cc1ccc(F)cc1)n1ccnc1 (racemic) landed at 390

----------
TEST TARGET: TxA2 receptor (Homo sapiens, UniProt P21731)
Construct: endogenous in cells
Sequence (P21731 whole entry): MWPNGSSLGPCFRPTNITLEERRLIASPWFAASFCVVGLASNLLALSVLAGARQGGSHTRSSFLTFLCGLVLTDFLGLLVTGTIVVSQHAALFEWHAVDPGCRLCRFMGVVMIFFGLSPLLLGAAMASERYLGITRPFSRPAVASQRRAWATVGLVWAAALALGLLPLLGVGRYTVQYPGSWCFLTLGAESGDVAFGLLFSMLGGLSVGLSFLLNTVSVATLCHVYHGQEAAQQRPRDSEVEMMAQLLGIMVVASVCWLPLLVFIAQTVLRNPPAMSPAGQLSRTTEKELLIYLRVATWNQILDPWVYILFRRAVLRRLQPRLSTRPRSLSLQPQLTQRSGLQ
TEST SUMMARY: [3H]-SQ 29,548 binding displacement in washed human platelets (TxA2 antagonism)
CONDITION INFO: 5 nM [3H]-SQ 29,548, 30 min at 25° C., pH 7.4
PARAMETER MEASURED: pIC50
Give bare numbers, as −log10 of the molar value.

Quick note, pIC50 for O=C(O)CCCCO/N=C(\c1ccccc1)C(Cc1ccc(F)cc1)n1ccnc1 (racemic) landed at 7.41

Ref: patent US5283254A
